Data origin: patent US10975068B2

- measured_on: full-length human RORγt (Homo sapiens (Human))
- Sequence (P51449 other isoform, or with tags, fused parts or gaps): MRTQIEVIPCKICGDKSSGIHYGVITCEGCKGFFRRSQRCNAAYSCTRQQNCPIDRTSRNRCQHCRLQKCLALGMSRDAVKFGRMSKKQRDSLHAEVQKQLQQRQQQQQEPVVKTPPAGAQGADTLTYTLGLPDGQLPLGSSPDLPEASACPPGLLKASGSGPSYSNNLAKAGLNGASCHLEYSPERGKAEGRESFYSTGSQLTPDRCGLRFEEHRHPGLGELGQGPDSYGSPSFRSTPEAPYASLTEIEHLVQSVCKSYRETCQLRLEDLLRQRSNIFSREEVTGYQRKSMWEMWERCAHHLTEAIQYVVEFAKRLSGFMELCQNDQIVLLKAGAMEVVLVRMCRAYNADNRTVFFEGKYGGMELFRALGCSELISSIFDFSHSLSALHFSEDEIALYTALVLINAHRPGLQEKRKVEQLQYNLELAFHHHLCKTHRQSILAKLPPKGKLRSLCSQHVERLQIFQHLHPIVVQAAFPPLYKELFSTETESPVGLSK
- experimental_details: RORγt (full-length human) reporter assay, Conditions B or C
- Format: cell-based
- condition_details: Conditions B or C; marked *: footnote not given
- From the text: RORγt (Full-Length Human) Reporter Assay: Cells used in this assay were transiently co-transfected with three different plasmids, one expressing the GAL4-DNA binding domain (DBD)-RORγt fusion protein under control of a CMV promoter (NH2-Gal4-DBD:RORC-COOH in pCMV-BD, Stratagene #211342), and two reporter plasmids—the firefly luciferase reporter under control of a GAL4 promoter (pFR-Luc 2×GAL4) and Renilla luciferase reporter under control of CMV promoter (pRL-CMV, Promega # E2261). […]
For each record, write down the corresponding RORγt (FL) Reporter Assay B or C, % inhibition (value marked *).

C[C@H](Nc1cc(C(F)(F)F)c(-c2sc(C(=O)NCC3(O)CCC3)nc2C(=O)N2CCC[C@@H]2C)cn1)C1CC1
99* %

State the recorded RORγt (FL) Reporter Assay B or C, % inhibition (value marked *) for every item in the following list.
1. CC[C@H](Nc1cc(C(F)F)c(-c2sc(C(=O)N[C@H]3C[C@H](O)C3)nc2C(=O)N2CCC[C@@H]2C)cn1)C(F)(F)F
2. CC(C)(O)CNC(=O)c1nc(C(=O)N2C3CCC2CC3)c(-c2cnc(NC(C3CC3)C3CC3)cc2C(F)(F)F)s1
3. CCC(C)(C)Nc1cc(C(F)(F)F)c(-c2sc(C(=O)NCC(C)(C)O)nc2C(=O)N2C3CCC2CC3)cn1
4. [2H]C([2H])(NC(=O)c1nc(C(=O)N2CCC[C@@H]2C)c(-c2cnc(NC(C)(C)C)cc2C(F)(F)F)s1)C(C)(C)O
5. CC(C)(C)CNc1cc(C(F)(F)F)c(-c2sc(C(=O)NCC(C)(C)O)nc2C(=O)N2C3CCC2CC3)cn1
6. CC[C@H](Nc1cc(C(F)F)c(-c2sc(C(=O)NC3CS(=O)(=O)C3)nc2C(=O)N2CCC[C@@H]2C)cn1)C(F)(F)F
7. C[C@H](Nc1cc(C(F)F)c(-c2sc(C(=O)N[C@H]3C[C@H](O)C3)nc2C(=O)N2C3CCC2CC3)cn1)C(F)(F)F
8. C[C@H]1CCCN1C(=O)c1nc(C(=O)NCC(C)(C)O)sc1-c1cnc(NC2(C)CCC2)cc1C(F)(F)F

[out]
["124* %", "97* %", "110* %", "112* %", "136* %", "107* %", "103* %", "108* %"]

---

For each record, write down the corresponding log10 of Kd.
- measured_on: human RORγt ligand binding domain (RORγt LBD) (Homo sapiens (Human), UniProt P51449)
- Sequence (P51449 other isoform, or with tags, fused parts or gaps): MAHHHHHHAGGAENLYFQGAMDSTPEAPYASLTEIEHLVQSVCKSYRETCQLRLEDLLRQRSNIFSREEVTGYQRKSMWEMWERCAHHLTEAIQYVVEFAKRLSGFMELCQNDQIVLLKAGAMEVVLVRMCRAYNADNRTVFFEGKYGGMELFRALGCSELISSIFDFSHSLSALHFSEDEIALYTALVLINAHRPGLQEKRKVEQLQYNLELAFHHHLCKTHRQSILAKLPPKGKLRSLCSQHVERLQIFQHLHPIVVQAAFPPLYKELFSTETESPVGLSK
- experimental_details: RORγt ThermoFluor® assay (thermal shift binding)
- condition_details: read-out: ThermoFluor® Assay, Kd
Record value = log10 of Kd given in nM.

Worked examples follow.
CC[C@H](Nc1cc(C(F)F)c(-c2sc(C(=O)N3CC4CCC(C3)O4)nc2C(=O)N2CCC[C@@H]2C)cn1)C(F)(F)F
1.26
C[C@H]1CCCN1C(=O)c1nc(C(=O)NCCC(C)(C)O)sc1-c1cnc(NC(C)(C)C)cc1C(F)(F)F
0.59
CC(C)(O)CNC(=O)c1nc(C(=O)N2CCC(F)CC2)c(-c2cnc(NC3CCCCC3)c(OC(F)F)c2)s1
1.08
CC[C@H](Nc1cc(C(F)F)c(-c2sc(C(=O)N[C@@H]3COC[C@@H]3O)nc2C(=O)N2CCC[C@@H]2C)cn1)C(F)(F)F (single isomer, unassigned)
0.98
C[C@H]1CCCN1C(=O)c1nc(C(=O)NC2CCS(=O)(=O)CC2)sc1-c1cnc(NC(C)(C)C)cc1C(F)(F)F
-0.60

Next, consider the following molecule.
`CC[C@H](Nc1cc(C(F)F)c(-c2sc(C(=O)N[C@@H](C)C(C)(C)O)nc2C(=O)N2CCCC[C@@H]2C)cn1)C(F)(F)F` yielded log10 of Kd of -0.55
